Test system: MT4
Test: Cytotoxicity against human MT4 cells after 2 days
Format: cell-based
Details: mt4, 48 h
QUANTITY MEASURED: CC50 (µM)
Write down the numeric answer in µM and omit the unit.

The examples below pair each entry with its known result.
MOLECULE: C=C(C)[C@@H]1CC[C@]2(C(=O)OCc3cn([C@H]4C[C@H](n5cc(C)c(=O)[nH]c5=O)O[C@@H]4CO)nn3)CC[C@]3(C)[C@H](CC[C@@H]4[C@@]5(C)CC[C@H](OC(=O)CC(C)(C)C(=O)O)C(C)(C)[C@@H]5CC[C@]43C)[C@@H]12
TGT: MT4
CC50 [µM]: 11
--
MOLECULE: C=C(C)[C@@H]1CC[C@]2(C(=O)N3CCC(CCCC(=O)N4CCOCC4)CC3)CC[C@]3(C)[C@H](CC[C@@H]4[C@@]5(C)CC[C@H](OC(=O)CC(C)(C)C(=O)O)C(C)(C)[C@@H]5CC[C@]43C)[C@@H]12
TGT: MT4
CC50 [µM]: 10.9
--
MOLECULE: C#CCOC(=O)[C@]12CC[C@@H](C(=C)C)[C@@H]1[C@H]1CC[C@@H]3[C@@]4(C)CC[C@H](OC(=O)CC(C)(C)C(=O)O)C(C)(C)[C@@H]4CC[C@@]3(C)[C@]1(C)CC2
TGT: MT4
CC50 [µM]: 15.3
--
MOLECULE: C=C(C)[C@@H]1CC[C@]2(C(=O)OCCCCCC(=O)OCC)CC[C@]3(C)[C@H](CC[C@@H]4[C@@]5(C)CC[C@H](OC(=O)CC(C)(C)C(=O)O)C(C)(C)[C@@H]5CC[C@]43C)[C@@H]12
TGT: MT4
CC50 [µM]: 8.6
--
MOLECULE: C=C(C)[C@@H]1CC[C@]2(C(=O)OCCCCCC)CC[C@]3(C)[C@H](CC[C@@H]4[C@@]5(C)CC[C@H](OC(=O)CC(C)(C)C(=O)O)C(C)(C)[C@@H]5CC[C@]43C)[C@@H]12
TGT: MT4
CC50 [µM]: 14.8
--
MOLECULE: C=C(C)[C@@H]1CC[C@]2(C(=O)O)CC[C@]3(C)[C@H](CC[C@@H]4[C@@]5(C)CC[C@H](OC(=O)CC(C)(C)C(=O)O)C(C)(C)[C@@H]5CC[C@]43C)[C@@H]12 [BEVIRIMAT]
TGT: MT4
CC50 [µM]: 14.2
--
MOLECULE: C=C(C)[C@@H]1CC[C@]2(C(=O)N3CCC(CCCC(=O)NCCCN4CCOCC4)CC3)CC[C@]3(C)[C@H](CC[C@@H]4[C@@]5(C)CC[C@H](OC(=O)CC(C)(C)C(=O)O)C(C)(C)[C@@H]5CC[C@]43C)[C@@H]12
TGT: MT4
CC50 [µM]: 10
--
MOLECULE: C=C(C)[C@@H]1CC[C@]2(C(=O)ON3C(=O)CCC3=O)CC[C@]3(C)[C@H](CC[C@@H]4[C@@]5(C)CC[C@H](OC(=O)CC(C)(C)C(=O)O)C(C)(C)[C@@H]5CC[C@]43C)[C@@H]12
TGT: MT4
CC50 [µM]: 11

Moving on to another molecule below.
Lookup: Need CC50, item `C=C(C)[C@@H]1CC[C@]2(C(=O)OCCOCCOCCOCCOC(=O)CC(C)(C)C(=O)O)CC[C@]3(C)[C@H](CC[C@@H]4[C@@]5(C)CC[C@H](OC(=O)CC(C)(C)C(=O)O)C(C)(C)[C@@H]5CC[C@]43C)[C@@H]12`
Found: 8.9

All figures here come from ChEMBL document CHEMBL2176886.
